These data points were gathered from the nanobody polyreactivity screen of Harvey et al. (2022).

experiment: yeast display, Sf9 membrane polyspecificity reagent, FACS + sequencing; frameworks hold sequencing errors
Property Label: polyreactivity (PSR sort gate)

Here are 4 sequences together with their reported answers.
INSERT INTO assay_data (sequence_entry, obs_value) VALUES
  ('QVQLVESGGGLVQAGGSLRLSCAASGSTFKLNAMGWYRQAPGKERELLASISTGASTNYADSVKGRFTISLDNAKNTVYVQMNSLNPEDTAVYYCAAQYPFAGYYITQYEYDYWGQGTQVTVSS', 'low polyreactivity'),
  ('QVQLVESGGGLVQAGGSLRLSCAASGITFYGYAMGWYRQAPGKEREFVAAISASGGSTYYADSVKGRFTISRDNAKNTVYLQMNSLKPEDTAVYYCAALVRGAYGYGYWGQGTQVTVSS', 'high polyreactivity'),
  ('QVQLVESGGGLVQAGGSLRLSCAASGSIFWYNAMGWYRQAPGKERELVAAINWSGGSTFYADSVKGRFTISRDNAKNTVFLQMNSLKPEDTAVYYCAADDWYTGYDYWGHGTQVTVSS', 'high polyreactivity'),
  ('QVQLVESGGGLVQAGGSLRLSCAASGRTFRYNAMGWYRQAPGKERELVAAISSGDRTNYADSVKGRFTISRDNAKNTVYLQMNSLKPEDTAVYYCAAPTDSYYEFDYWGQGTQVTVSS', 'low polyreactivity');

polyreactivity (PSR sort gate) reading for `QVQLVESGGGLVQAGGSLRLSCAASGSILNSYAMGWYRQAPGKERELVATITSGSRTNYADSVKGRFTISRDNAKNTVYLQMNSLKPEDTAVYYCATEYQRRHYIGHNYWGQGTQVTVSS` : low polyreactivity

----------
assay: yeast display, Sf9 membrane polyspecificity reagent, FACS + sequencing; frameworks hold sequencing errors
Property Label: polyreactivity (PSR sort gate)

INSERT INTO measurements (sequence_entry, property_label, obs_value) VALUES
  ('QVQLVESVGGLVQAGGSLRLSSAASGITFQYYDMGWYRQAPGKERELVAAIDTSGGSTYYADSVKGRFTISRDNEKNTVYLHMNSLKREDTSVYYGAACYYGYSVYGRMYYWGQGTQVTVSS', 'polyreactivity (PSR sort gate)', 'low polyreactivity'),
  ('QVQLVESGGGLVQAGGSLRLSCAASGRIFKLYAMGWYRQAPGKERELVATIRYSGGSTYYADSVKGRFTISRDNAKNSVYLHMNSLKPEDTAVYYCNYVSRRQYFEYDYWGQGTQVTVSS', 'polyreactivity (PSR sort gate)', 'low polyreactivity');

----------
experiment: yeast display, Sf9 membrane polyspecificity reagent, FACS + sequencing; frameworks hold sequencing errors
Property Label: polyreactivity (PSR sort gate)

Answered cases to consult:
INSERT INTO measurements (sequence_entry, property_label, obs_value) VALUES
  ('QVQLVESGGGLVQAGGSLRLSCAASGIIFYTYAMGWYRQAPGKERELVAAISRSGVRTYYADSVKGRFTISRDNAKNTVYLQMNSLKPEDTAVYYCAVDKGITQGLYDYWGQGTQVTVSS', 'polyreactivity (PSR sort gate)', 'high polyreactivity'),
  ('QVQLVESGGGLVQAGGSLRLSCAASGNIFLYYAMGWYRKAPGKERELVADIDSSGASTYYADSVKGRFTISRDNAKNTVYLQMNSLKPEDTAVYYCPAEFHWWYAGYDYGYWGLGTQVTVSS', 'polyreactivity (PSR sort gate)', 'low polyreactivity'),
  ('QVQLVESGGGLVQAGGSLRLSCAASGFTFGVYAMGWYRQAPGKERELVAAITRSGSSTYYADSVKGRFTISRDNAKNTVYLQMNSLKPEDTAVYYCNKYKYVSAVQWKVAGDYWGQGTQVTVSS', 'polyreactivity (PSR sort gate)', 'low polyreactivity'),
  ('QVQLVESGGGLVQAGGSLRLSCAASGSTIYDNAMGWSRQAPGKERELVAAITWSVGRTYYADSVKGRFTISRDNAKNTVYLQMNSLKPEDTAVYYCAARYQYYSTYGVTLDYWGQGTQVTVSS', 'polyreactivity (PSR sort gate)', 'low polyreactivity'),
  ('QVQLVESGGGLVQAGGSLRIRCAASGLIFGFYAMGWYRQAPGKERELVAAINSGGITYYADSVKGRFTISRDNAKNTVYLQMNSLKPEDTAVYYCNKDSHISTAYDYWGQGTQVTVSS', 'polyreactivity (PSR sort gate)', 'low polyreactivity');

Could I get polyreactivity (PSR sort gate) for every one of these entries?
1. QLQLDESRGGLVQAGRSLRLSCAASGGNFRYYAMGWYRQAPGKERELDAAISSGGSTNYADSVKVRFTISRDNAKNTVYLQMNSLKREDTAVYYCAADVIYYYAYYTYDYWGQGTQVTVSS
2. QVQLVESGGGLVQAGGSLRLSCAASGFIFYYYAMGWYRQAPGKERELVAAISWSGARTYYADSVKGRFTISRDNAKNTVYLQMNSLKPEDTAVYYCNAVAFYPRSSRSWRLDYWGQGTQVTVSS
3. QVQLQESGGGLVQAGGSLGCAASGNISTRSEMGWYRQSPGKEREFVATINSGGITNYADSVKGRFTISRDNAKNTVYLRMNSLKPEDTAVYYRAVYGYFSDPYDYWGQGTQVTVSS
4. HVQLVESGGGLVQAGGSHRLICASSGFTIYYAIAWYRQAPGKESELVASISANGGSTYYADSVKGRFTISRDNAKNTVYLQMNSLKPEDTAVYYCAARGLSGQRRYYWGQGTQVTVSS

1: low polyreactivity; 2: high polyreactivity; 3: low polyreactivity; 4: high polyreactivity

----------
assay: yeast display, Sf9 membrane polyspecificity reagent, FACS + sequencing; frameworks hold sequencing errors
Property Label: polyreactivity (PSR sort gate)

// known answers, use as guide
INSERT INTO measurements (sequence_entry, obs_value) VALUES
  ('QVQLVESGGGLVQAGGSLRLSCAASGYTFAYYVMGWYRQAPGKERELVATIRSRAGRTYYADSVKERFTISRDNAKNTVYLQMNSLKPEDTAVYYCAAGWYYTYDYWGQGTQVTVSS', 'high polyreactivity'),
  ('QVQVVESGGGLVQAGGSLRLSCAASGRTFRSYAMVWYRQAPGKERELVASISRGASTNYADSVNGRFTISRDNSKNTVYLQRNSLKPEDTAVYYCAAKYSWGYTYYYWGQGTQVTVSS', 'high polyreactivity'),
  ('QVQLVESGGGLVQAGGSLRLSCAASGSIFYWNAMGWYRQAPGKERELVAAISYNGGSTYYADSVKGRFTISRDNAKNTVYLQMNSLKPEDTAVYYCAADNYYYGYEYWGQGTQVTVSS', 'high polyreactivity'),
  ('QDQHVESGGGLVQAGGSLRLSCAASGSTFRYYAMGWYRQRPGKESEMVAAITRRGGSTYYADSVKGRFTISRDNAKYTVYLQMNSLKQADTAVYYCAAYRIYYSGYGYYYYWGQGTQVTVSS', 'high polyreactivity');

Return reported polyreactivity (PSR sort gate) values for all items listed beneath this line.
1. QVQLVESGGGLVQAGGSLRLICAASGRTFAGNAMGWYRQAPGKERELVAAISQGGGYTYYADSVKGRFTISRDNAKNNVYLQMNSLKPEDTAVYYCAAEIPRRWASFATLWYDYLGQGTQVTVSS
2. QVQLVESGGGLVQAGGSLRLSCAASGSTFGYYTMGWSRQAPGKERELVAAITWSGGSTYYADSVKGRFTISRHNAKNTVYLQMNSLKAEDTAVYYCAADDYWTPFGYWGQGTQVTVSS
3. QVQLVESGGGLVQAGGSLRLSCAASGFTFRYNAMGWYRQAPGKERELVAAITNGGSTYADSVKGRFTISRDNAKNTVYLQMNSLKPEDTAVYYCAADYFVLTYYLWCYSPYKSFYYWGQGTQVTVSS

["low polyreactivity", "low polyreactivity", "low polyreactivity"]

----------
assay: yeast display, Sf9 membrane polyspecificity reagent, FACS + sequencing; frameworks hold sequencing errors
Property Label: polyreactivity (PSR sort gate)

INSERT INTO results (sequence_entry, property_label, obs_value) VALUES
  ('QVHLVESGGGLVQAAGILRLSSAASGFTFVPYAMGWYRQAPGKERELVAAISWRRGSTYYADSVKGRFTISRDNAKITVYLQMNSLKPEDSGVYYGDDQYFSRSGYWGQGTQVTVSS', 'polyreactivity (PSR sort gate)', 'high polyreactivity'),
  ('QVQLVESGGGLVQAGGSLRLSCAASGFTFGRNAMGWYRQAPAKERELVAAISYDGTRTYYADSVKGRFTISRDKAKNTVYLQMNSLKPEDTAVYYGNAVWVRGFYRVYDYWGQGTQVTVSS', 'polyreactivity (PSR sort gate)', 'high polyreactivity');

----------
assay: yeast display, Sf9 membrane polyspecificity reagent, FACS + sequencing; frameworks hold sequencing errors
Property Label: polyreactivity (PSR sort gate)

INSERT INTO measurements (sequence_entry, obs_value) VALUES
  ('QVQLVESGGGLVQAGGSLRLSCAASGSTMGRYAMGWYRQAPGKERELVASITWSDDSTYYADSVKGRFTISRDNAKNTVYLQMNSLKPEDTAVYYCAAAGNLYTYRFYYWGQGTQVTVSS', 'low polyreactivity'),
  ('QVQLVESGGGLVQAGGSLRLSCAASGLIFYSNAMGWYRQAPGKDRELVAAITTSGSSTYYADSVKGRFTISRDNAKNTVYIPMNSLKPEDTAVYYCATEWRSNYWGQGTQVTVSS', 'low polyreactivity'),
  ('QVQLVESGGGLVQAGGSLRLSCAASGITFTFNAMGWYRQAPGKERELVAAISSTTSTKYADSVKGRFTISRDNAKNTVYLQMNSLKPEDTAVYYCALTYLLRYYGYRDDEYDYWGQGTQVTVSS', 'low polyreactivity'),
  ('QVQLVESGGGLVQAGGSLRLSCAASGRIFWYYAMGWYRQAPGKERELVATISSRSGSTYYADSVKGRFTISRDNAKNTVNLQMNSLKPEDTAVYYCAAGTPYYLGYRHNYWGQGTQVTVSS', 'high polyreactivity'),
  ('QVQLVESGGGLVQAGGSLRLSCAASGSIFASNAMGWYRQAPGKDTELVAAITYSGGSTYYADSVKGRFTISRDNAKKTVDLQMNSLKPEDTAVYYCAADVSVPQRYDYWGQGTQVTVSS', 'low polyreactivity'),
  ('QVQLVESGGGLVQAGGTLRLSCAASGRIFSKNAMGWYRQAPGKERELVAAMSSSGTSTYYADSVKGRFTISRDNAKNTVYLQINSLKPEDTAVYYCAARVSLTTYSYYSWGQGTQLTVSS', 'high polyreactivity'),
  ('QVQLVESGGGLVQAGGSLRLSCAASGITNTHYAMGWYRQAPGKERELVAAITSSGRTYYADSVKGRFTISRDNAKNTVYLQMNSLKPEDTAVYYCAAEHSWYYGLLGYWGQGTQVTVSS', 'high polyreactivity'),
  ('QVQLVESGGGLVHAGGSLRLSCAASGSTFPRNDMGWYRQAPGKERELVAAISRGGSTNYADSVKGRFTISRDNAKNTVYLQMNSLKPEDTAVYYCAAQIFESAYGMDYWGQGTQVTVSS', 'low polyreactivity');

For the 3 sequences below, give their polyreactivity (PSR sort gate) values.
1. QVQLVESGGGLVQEGGSLRLICAASGRTFYINDMGWYRQAPGKEREFVAAITWSGGSTYYADSVKGRFTISRDNAKNTVYLQMNSLKPEDTAVYYCARPYRGSPRYYYWGQGTQVTVSS
2. QVQLVESGGGLVQAGGSLRLSCAASGSTFGSYAMGWYRQAPGTERELVAAISRAGSTYADSVKGRFTISRDNAKNTVYLQMHSLKPEDTAVYYCANRDNALYYGYDYWGQGTQVTVSS
3. QVQLVESGGGLVQAGGSLRLSCAASGIIFYHYALGWYRPAPGKERELVAAISRRGGTTYYADSVKGRFTISRDNAKNTVYLQMNSLKPEDTAVYYCAADYGSYGLYRGYYYWGQGTQVTVSS

["high polyreactivity", "low polyreactivity", "high polyreactivity"]
